System: bloodstream trypomastigote forms of Trypanosoma cruzi (Y strain, DTU II)
assayInfo: In vitro activity against bloodstream trypomastigotes (Y strain)
Format: cell-based
runConditions: Trypanosoma cruzi, 2 h, 95% confidence interval in brackets
Description: Trypomastigote forms were incubated in 96-well microplates. Briefly, 100 μL of a BT suspension (in RPMI medium + 5% FBS) containing 10^7 parasites mL^−1 was added to the same volume of each compound diluted in RPMI + 5% FBS at twice of the desired final concentration (0–50 μM, serially diluted 1:2). After 2 and 24 h at 37°C, the number of live parasites was determined by light microscope quantification using a Neubauer chamber. […]
Hi! Could you tag entries with EC50 below 6 µM as satisfied, and those at or above as not satisfied? Much appreciated.

A selection of reference data follows.
{"compoundString": "Cc1ccc(CC(=O)c2cccc(OCCCCn3ccnc3)c2)cc1Nc1nccc(-c2cccnc2)n1", "cat": "not satisfied"}
{"compoundString": "Cc1ccc(CC(=O)c2ccccc2OCCCCn2ccnc2)cc1Nc1nccc(-c2cccnc2)n1", "cat": "not satisfied"}
{"compoundString": "Cc1ccc(CC(=O)c2ccc(OCCCCn3ccnc3)c(Br)c2)cc1Nc1nccc(-c2cccnc2)n1", "cat": "satisfied"}
{"compoundString": "COc1cc(C(=O)Cc2ccc(C)c(Nc3nccc(-c4cccnc4)n3)c2)ccc1OCCCCn1ccnc1", "cat": "not satisfied"}
{"compoundString": "Cc1ccc(CC(=O)c2ccc([N+](=O)[O-])c(OCCCCn3ccnc3)c2)cc1Nc1nccc(-c2cccnc2)n1", "cat": "satisfied"}

We next turn to a different compound, shown below.
Request: Consider COc1ccc(C(=O)Cc2ccc(C)c(Nc3nccc(-c4cccnc4)n3)c2)cc1OCCCCn1ccnc1 . Does its EC50 lie strictly below 6 µM?
Response: not satisfied
